- Test system: K562
- test: Cytotoxicity against human K562 cells assessed as inhibition of cell viability incubated for 48 hrs by Cell-titer-Glo luminescent cell viability assay
- Assay type: functional, cell-based
- experimental_setup: K562, 48 h
property_measured: EC50 (nM)
Write the value in nM as a bare number.

Please report EC50 with K562 for item Cc1nc(Nc2ncc(C(=O)Nc3c(C)cccc3Cl)s2)cc(N2CCN(CCCCOc3ccc(/N=N/c4ccc(C(=O)Nc5cccc6c5CN(C5CCC(=O)NC5=O)C6=O)cc4)cc3)CC2)n1 (stereo unspecified) .
28

These measurements were taken from ChEMBL document CHEMBL4376901.
